assayTarget: human Gal-1 (hGal-1)
Sequence (P09382 2-135 limits assumed): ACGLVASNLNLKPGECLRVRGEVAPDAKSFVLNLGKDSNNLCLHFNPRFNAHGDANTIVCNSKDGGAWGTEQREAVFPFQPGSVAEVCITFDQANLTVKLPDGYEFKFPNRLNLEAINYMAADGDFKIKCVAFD
test: Competitive binding assay: binding of biotinylated hGal-1 to microplate-adsorbed asialofetuin (ASF)
condition: Activities on hGal-1; mean values of several measurements
pIC50: −log10 of the molar value.

[
  {
    "molecule": "OC[C@H]1O[C@H](CC2CC(c3ccc4[nH]ncc4c3)=NO2)[C@H](O)[C@@H](n2cc(-c3cc(F)c(F)c(F)c3)nn2)[C@H]1O (stereo partly drawn)",
    "pIC50": 4.97
  },
  {
    "molecule": "CO[C@@H]1[C@@H](n2cc(-c3ccc(F)c(F)c3F)nn2)[C@@H](O)[C@@H](CO)O[C@@H]1Cc1cc(C(C)(C)O)no1",
    "pIC50": 6.11
  },
  {
    "molecule": "OC[C@H]1O[C@H](Cc2cc(C3(O)COC3)on2)[C@H](O)[C@@H](n2cc(-c3cc(F)c(F)c(F)c3)nn2)[C@H]1O",
    "pIC50": 5.20
  },
  {
    "molecule": "CO[C@@H]1[C@@H](n2cc(-c3ccc(Cl)c(F)c3F)nn2)[C@@H](O)[C@@H](CO)O[C@@H]1Cc1cc(C2CCOCC2)on1",
    "pIC50": 5.09
  },
  {
    "molecule": "CO[C@@H]1[C@@H](n2cc(-c3ccc(C)c(F)c3F)nn2)[C@@H](O)[C@@H](CO)O[C@@H]1Cc1cc(C2(C)COC2)on1",
    "pIC50": 5.58
  },
  {
    "molecule": "CO[C@@H]1[C@@H](n2cc(-c3ccc(C)c(F)c3F)nn2)[C@@H](O)[C@@H](CO)O[C@@H]1Cc1cc(C2CCC2)on1",
    "pIC50": 4.85
  }
]
